assay: NCI Yeast Anticancer Drug Screen. Data for the sgs1 mgt1 strain (AID 161);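 note: 0% = growth of cultures given vehicle only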; conditions: S. cerevisiae sgs1 mgt1 strain, at 50.0 µM, active compounds read high
About 79,000 compounds went through this panel and 15% of them were active in at least one assay; those are over-represented in the sample as a whole.
Could you please report measured growth inhibition for the items listed next?
Answers are plain numbers, in %.

Guide cases for growth inhibition, answers given:
compound: COC(=O)C1=CCCN(C)C1
result_unit: %
growth inhibition: 10.2

compound: COc1cc2c(cc1O)-c1c(OC)c(O)cc3c1C(C2)N(C)CC3 (stereo not given)
result_unit: %
growth inhibition: -22.6

compound: O=[N+]([O-])c1cccc(P(=O)(O)O)c1
result_unit: %
growth inhibition: 3.35

The following compounds each have a reported value; give each one's growth inhibition.
1. C/C=C/C(=O)[O-].N.N.N.N.N.[Co+3].[O-][Cl+3]([O-])([O-])[O-]
2. CCOP12(OCC)NC(=O)OC1(C(F)(F)F)c1ccccc1O2 (stereo not given)
3. COc1cc(/C=C2\C(O)C3CCN2CC3)cc(OC)c1OC (stereo not given)

Result:
-7.6
-38
-5.6

Origin of the recorded values: PubChem BioAssay (NCI)
